Where these numbers come from: ChEMBL document CHEMBL4842383

Molecular target: Aurora kinase A (Homo sapiens) (UniProt O14965)
Sequence (O14965 whole entry, the tested form may be a part): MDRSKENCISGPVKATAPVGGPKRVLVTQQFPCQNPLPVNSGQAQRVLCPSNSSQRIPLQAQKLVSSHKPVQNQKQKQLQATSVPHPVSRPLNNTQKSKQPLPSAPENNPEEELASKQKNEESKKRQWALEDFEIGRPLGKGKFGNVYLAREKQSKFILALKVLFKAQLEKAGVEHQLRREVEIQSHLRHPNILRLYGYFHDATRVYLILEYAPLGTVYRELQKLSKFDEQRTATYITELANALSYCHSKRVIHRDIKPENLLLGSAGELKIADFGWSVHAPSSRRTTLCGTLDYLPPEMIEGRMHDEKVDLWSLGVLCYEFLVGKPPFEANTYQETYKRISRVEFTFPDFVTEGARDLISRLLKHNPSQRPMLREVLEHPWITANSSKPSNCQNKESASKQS
Test: Inhibition of recombinant GST-AURKA (residues Ser123 to Ser401) (unknown origin) expressed in Sf9 insect cells using tetra(-LRRASLG) peptide as substrate at 1 uM incubated for 90 mins by ATP Kinase Glo assay
assay-endpoint: inhibition (%)
Report only the number, with the unit % understood.

The reported inhibition of the compound CN(C)c1ccc2c(Oc3ccc(NC(=O)NCc4ccc(S(N)(=O)=O)cc4)cc3)ncnc2c1 was 2

Notebook: CN(C)c1ccc2c(Oc3ccc(NC(=O)NCc4ccc(F)cc4)cc3)ncnc2c1 , inhibition read as 5

Data point: COc1ccc2c(Oc3ccc(NC(=O)Nc4ccccc4)cc3)ncnc2c1 ; inhibition = 36

What the record says about COc1ccc(NC(=O)Nc2ccc(Oc3ncnc4cc(N(C)C)ccc34)cc2)cc1 : inhibition is 23

In plain terms, CN(C)c1ccc2c(Oc3ccc(NC(=O)NCc4ccc(C(F)(F)F)cc4)cc3)ncnc2c1 has a documented inhibition of 16

Looking up CN(C)c1ccc2c(Oc3ccc(NC(=O)Nc4cccc(Cl)c4)cc3)ncnc2c1 , I see its inhibition listed as 71

inhibition reading for CN(C)c1ccc2c(Oc3ccc(NC(=O)Nc4ccc(C(F)(F)F)cc4)cc3)ncnc2c1 : 46

Entry under test: O=C(Nc1ccccc1)Nc1ccc(Oc2ncnc3cc(N4CCCC4)ccc23)cc1 . Its inhibition was 43

Data point: O=C(Nc1ccccc1)Nc1ccc(Oc2ncnc3ccc(N4CCCC4)cc23)cc1 ; inhibition = 11

Reported inhibition of Nc1ccc2c(Oc3ccc(NC(=O)Nc4ccccc4)cc3)ncnc2c1 : 47

Recorded result, FC(F)(F)c1ccc(CNc2ccc(Cc3c[nH]c4ncc(Cl)cc34)cn2)cn1 [PEXIDARTINIB] , inhibition: 63

# inhibition (compound: COc1cc(Oc2ccnc3cc(OC)c(OC)cc23)ccc1NC(=O)NC(C)c1nccs1 (centres undefined) ) is 42

# inhibition of CN(C)c1ccc2c(Oc3ccc(NC(=O)NCCc4ccccc4)cc3)ncnc2c1 = 35

Record O=C(Nc1ccccc1)Nc1ccc(Oc2ncnc3cc(F)ccc23)cc1 , field inhibition: 13

// sample CN(C)c1ccc2c(Oc3ccc(NC(=O)NCc4ccn(C)n4)cc3)ncnc2c1 , its inhibition was 58

Value of measured inhibition for the entry CN(C)c1ccc2c(Oc3ccc(NC(=O)NCc4c(F)c(F)c(F)c(F)c4F)cc3)ncnc2c1 : 3

Noted for CN(C)c1ccc2c(Oc3ccc(NC(=O)NCc4ccc(C(F)(F)F)nc4)cc3)ncnc2c1 : its inhibition reads 7

Value of inhibition reported for the compound COc1ccc(CNC(=O)Nc2ccc(Oc3ncnc4cc(N(C)C)ccc34)cc2)cc1OC is 4

inhibition in this record for CN(C)c1ccc2c(Oc3ccc(NC(=O)NCc4cccnc4)cc3)ncnc2c1 : 1

Entry CN(C)c1ccc2c(Oc3ccc(NC(=O)Nc4ccccc4)cc3)ncnc2c1 ; inhibition = 40

Lab note: measured inhibition of CN(C)c1ccc2c(Oc3ccc(NC(=O)NCc4ccccc4)cc3)ncnc2c1 was 7

Data point: COc1ccc(CNC(=O)Nc2ccc(Oc3ncnc4cc(N(C)C)ccc34)cc2)cn1 ; inhibition = 2

The compound listed as CN(C)c1ccc2c(Oc3ccc(NC(=O)Nc4ccc(Cl)cc4)cc3)ncnc2c1 shows inhibition equal to 70

The recorded inhibition for CN(C)c1ccc2c(Nc3ccc(NC(=O)Nc4ccccc4)cc3)ncnc2c1 is 33

// COc1ccccc1NC(=O)Nc1ccc(Oc2ncnc3cc(N(C)C)ccc23)cc1 : inhibition value = 24

Value of inhibition reported for the compound Cc1ccc(CNC(=O)Nc2ccc(Oc3ncnc4cc(N(C)C)ccc34)cc2)cn1 is 4

Summary for this compound, CC(NC(=O)Nc1ccc(Oc2ncnc3cc(N(C)C)ccc23)cc1)c1nccs1 (centres undefined) : inhibition is 6

Per the record, COc1cc2ncnc(Oc3ccc(NC(=O)Nc4ccccc4)cc3)c2cc1OC has inhibition of 46

Documented inhibition of CN(C)c1ccc2c(Oc3ccc(NC(=O)Nc4cccc(C(F)(F)F)c4)cc3)ncnc2c1 : 35

Entry under test: COc1cccc(NC(=O)Nc2ccc(Oc3ncnc4cc(N(C)C)ccc34)cc2)c1 . Its inhibition was 46

The compound listed as COc1ccc(NC(=O)Nc2ccc(Oc3ncnc4cc(N(C)C)ccc34)cc2)cc1Cl shows inhibition equal to 53

So for CN(C)c1ccc2c(Oc3ccc(NC(=O)NCc4nccs4)cc3)ncnc2c1 , the logged inhibition turned out to be 2

Noted for CNc1ccc2c(Oc3ccc(NC(=O)Nc4ccccc4)cc3)ncnc2c1 : its inhibition reads 57

Form: compound = COc1ccc2c(Nc3ccc(NC(=O)Nc4ccccc4)cc3)ncnc2c1 ; inhibition = 56
